Target: T1, M5
T1 construct: also called PD1 mutant M5
Experiment: scFv-phage ELISA
Recorded Metric: OD490

- PD1-49A2 (antibody, V domains shown, scFv-phage in the screening ELISA; whole IgG in the other assays; also called Parent 49A2) VH: QVQLVESGGGVVQPGRSLRLSCAASGFTFSSYAMHWVRQAPGKGLEWVAVISYDGSNKYYADSVKGRFTISRDNPKNTLYLQMNSLRAEDTAVYYCTTTTFDSWGRGTLVTVSS VL: DIVMTQSPLSLPVTPGEPASISCRSSQSLFDSDDGNTYLDWYLQKPGQSPQLLIYTLSHRASGVPDRFSGSGSGTDFTLKISRVEAEDVGIYYCLQRMGFPYTFGQGTKVEIK: 1.2
- PD1-48A9 (antibody, V domains shown, scFv-phage in the screening ELISA; whole IgG in the other assays) VH: QMQLVQSGAEVKKPGSSVKVSCKASGDTFTRYIINWVRQAPGQGLEWMGRVIPTLGLTTYAQNFQDTVTIIADKSTNTAYMELKNLRSEDTAVYYCARGYGSGAFDIWGQGTMITVSS VL: DIVMTQTPLSLPVTPGEPASISCRSSQSLLDSHDGNTYLDWYLQKPGQSPQLLIYTLSHRASGVPDRFSGSGSGTDFTLKISRVEAEDVGLYYCMQRIDFPYTFGQGTKVEIK: 1.3
- PD1-45F1 (antibody, V domains shown, scFv-phage in the screening ELISA; later whole IgG) VH: QVQLVQSGAEVKKPGASVKLSCKASGYTFNSYYVHWVRQAPGQGLEWMGIINPSDGSATYAQKFQGRVTMTSDTSTSSVYMELSSLRSEDTAVYYCARDGNYYDSRGYYYDTFDMWGQGTLITVSS VL: SYELTQDPAVSVALGQTVRITCQGDSLRTYYASWYQQKPGQAPILVIYGKNNRPSGIPDRFSGSSSGNTASLTITAAQAEDEADYYCNSRDSSGKSLVFGGGTKLTVL: 3.8
- PD1-44B5 (antibody, V domains shown, scFv-phage in the screening ELISA; later whole IgG) VH: QVQLVESGGGVVQPGRSLRLSCAASGFTFSSYAMHWVRQAPGKGLEWVAVISYDGSNKYYADSVKGRFTISRDNSKNTLYLQMNSLRAEDTAVYYCARLMHTFSVQYFLDVWGQGTTVTVSS VL: QFVLTQSPSASGTPGQNIVISCSASTFNIGTTTVNWYQRLPGTAPKLLIYNYDQRPSGVPDRFSGSKSGTSASLAISGLQSEDEADYYCAAWDDSLNAWLFGGGTKLTVL: 3.7
- PD1-32A6 (antibody, V domains shown, scFv-phage in the screening ELISA; later whole IgG) VH: QVQLVQSGAEVKKPGSSVKVSCKASGDTFTRNAVSWVRQAPGEGLEWMADIIPIFGSANYAQKFQGRLTLTADVSTSTAYMELSSLRSEDTAVYYCARTIEGAFDIWGQGTMVTVSS VL: DIQMTQSPSSVSASVGDRVTITCRASQGIVSWLAWYQQKPGKAPRLLIYRASDLETGVPSRFSGSGSGTDFTLTISSLQPEDVATYYCQQADSFPLTFGGGTKVEIK: 2.9
- PD1-41C9 (antibody, V domains shown, scFv-phage in the screening ELISA; whole IgG in the other assays) VH: QMQLVESGGGVVQPGRSLRLSCAASGFTFSSYAMHWVRQAPGKGLEWVAVISYDGSNKYYADSVKGRFTISRDNSKNTLYLQMNRLRSEDTAVYYCTTTTFDSWGQGTLITVSS VL: DIVMTQTPLSLPVTPGEAASISCRSSQSLLDSEDGNTYLDWYLQKPGQSPQLLIYTLSHRASGVPDRFSGSGSGTDFTLKISRVAAEDVGLYYCLQRMGFPYTFGQGTKLDIK: 2.3
- PD1-45F4 (antibody, V domains shown, scFv-phage in the screening ELISA; later whole IgG) VH: QMQLVESGGGLVQPGRSLRLSCAASGFTFDDYAMHWVRQAPGQGLEWVSGISWNSNNIKYADSVKGRFTISRDNSKNSLYLQMNSLRAEDTAVYYCARGALTPLDVWGQGTPVTVSS VL: SYELTQAPSLSVSPGQTANIICSGDNLRTKYVSWYQQKPGQSPLLVIYQDTRRPSGIPARFSGSNSGNTATLTISGTQTRDESTYYCMTWDVDTTSMIFGGGTKLTVL: 0.1
- PD1-45D6 (antibody, V domains shown, scFv-phage in the screening ELISA; whole IgG in the other assays) VH: QVQLVESGGGVVQPGRSLRLSCAASGFTFSSYAMHWVRQVPGKGLEWVAVISYDGNDKYYADSVKGRFTISRDNSKNTLYLQMNSLRAEDTAVYYCVPTTFEYWGQGSQVTVSS VL: DIVMTQTPLSLPVTPGEAASISCRSSQSLLDSDDGKTYLDWYLQKPGQSPQLLIYTLSYRASGVPDRFSGSGSGTEFNLRISRVEAEDVGIYYCMQRVEFPFTFGQGTKLDIK: 3.6
- PD1-51D9 (antibody, V domains shown, scFv-phage in the screening ELISA; whole IgG in the other assays) VH: QVQLVESGAEVKKPGASVKLSCKASGYTFSSYWMHWVRQAPGQRLEWMGEINPGNGHTNYNEKFKSRVTITVDKSASTAYMELSSLRSEDTAVYYCAREGDGSYWGYFDSWGQGTPITVSS VL: DIVMTQTPLSLPVTPGEPASISCRSSQSLLHSNGNNYLDWYLQKPGQSPQLLIYLGSYRASGVPDRFSGSGSGTDFTLKISRVEAEDVGLYYCMQGLQIPSTFGPGTKVDIK: 0.1
- PD1-49B9 (antibody, V domains shown, scFv-phage in the screening ELISA; later whole IgG) VH: QMQLVESGGGLVQPGRSLRLSCAASGFTFEDYAMHWVRQPPGKGLEWVSSISWNSHNIAYADSVKGRFTISRDNSKNSLYLQMNSLRAEDTAVYYCSTSGLGVHAWGQGTMVTVSS VL: QSALTQPPSASGSPGQSVTISCTGTSSDVGGYNYVSWYQQHPGKAPKLMIYEVSKRPSGVPDRFSGSKSGNTASLTVSGLQPEDEADYYCSSFARNSNYVFGTGTKVTVL: 3.9
